molecular target: TDP-43 (Homo sapiens, UniProt Q13148 1-414); assay: RNA Bind-n-Seq with designed 260-mer pool; 25 mM Tris-HCl, 150 mM KCl, 3 mM MgCl2, BSA (printed 500 mg/mL), 20 units/mL SUPERase IN; pH not stated; 500 nM RNA pool, 1 h, 4 C; TDP-43 5, 50, 500 nM; high values mean tight binding; details: protein: recombinant; tags: SBP (GST cleaved off with PreScission; pGEX-GST-SBP)
Sequence (Q13148 whole entry): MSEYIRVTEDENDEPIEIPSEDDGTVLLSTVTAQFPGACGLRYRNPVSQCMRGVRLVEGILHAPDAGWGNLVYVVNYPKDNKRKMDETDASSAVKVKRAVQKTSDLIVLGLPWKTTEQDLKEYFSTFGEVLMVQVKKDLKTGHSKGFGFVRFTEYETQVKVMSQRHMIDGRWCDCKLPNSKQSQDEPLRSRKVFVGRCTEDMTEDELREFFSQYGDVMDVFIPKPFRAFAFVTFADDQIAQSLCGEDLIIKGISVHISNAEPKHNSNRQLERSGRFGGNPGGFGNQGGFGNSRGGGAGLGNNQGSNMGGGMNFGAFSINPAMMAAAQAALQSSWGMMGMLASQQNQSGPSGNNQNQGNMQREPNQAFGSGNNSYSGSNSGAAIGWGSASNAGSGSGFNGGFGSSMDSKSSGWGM
Over roughly 9,900 sequences, “r (bound/input frequency ratio)” has its median near 0.7; the highest 2% begin near 6.5. Many of the other results were omitted from the sample, so the highest values are more common in it than they were.
READOUT: binding signal

>  <BINDER>
ENSMUSG00000058297.473|Spock2 (ssRNA) RNA: GGGAGUUCUACAGUCCGACGAUCGCUUCGAUAUCCGCAUGCUAGCGGGCAGGAGAGGUAGGGCUGUGUUGGAAAGAGUUCAACCAAAUUACGGCAGCACCACAUCUUGCCGAGCCCUGGAGCUGCCCUACUAAGAGCCUCCUUAGCCCUGGGUGCUGGGAAGGAUGGUGUACGUUGGGGAAGUUUGAGGUUGGAGAGAGUAAAUGUGCCUUGAGAGACCACUCAGAGGUCCCAGGAGGAACGGGGGCGGGGCUUAGCCUGGGAGUUCUGGCAGGAGGCAAAGUUGGUGAGAGUCCUGGGACAUCUCUUGCGGUCGCACUAGUGUGGAAUUCUCGGGUGUCAAGG

>  <REPORTED_RESULT>
6.95 R (bound/input frequency ratio)

$$$$
>  <BINDER>
ENSMUSG00000028439.106|Fam219a|156:160 (ssRNA) RNA: GGGAGUUCUACAGUCCGACGAUCGCUUCGAUAUCCGCAUGCUACCCUCAUCUCCAGAUGGGAAGCCUGGCAGCGCUGUCCAAAGGGAUACUGUCUCUCCAUUAGAUAACUCCUUCCACUGUCUCCCUCCCCCGCUUUCUUACUUUCUGAGGGUUGGGAAGGUAAGAUGGGCCUUAGAGAGAAGCCAGGUUUGGGGAUGCAUACACCUGUUCUCACCGGUCUCUAACCAGUGCAUCUGUCUCUCUGCCUCAUCCCCACACCGCCCUGCCACCCCCAGUCUUCUGUCUAUUGGUUCCAGGCUGGACUCUUGCGGUCGCACUAGUGUGGAAUUCUCGGGUGUCAAGG

>  <REPORTED_RESULT>
0.353 R (bound/input frequency ratio)

$$$$
>  <BINDER>
ENSMUSG00000004113.291|Cacna1b (ssRNA) RNA: GGGAGUUCUACAGUCCGACGAUCGCUUCGAUAUCCGCAUGCUAGGUGUUCAGUGUGCACAGAUAGCUGGGAGGCCACGAGAGAAAGGUUGCACACAGACAGGCAGGCACUCCUUGGUGUGGUCUCUCUGUUUUGAAACUUCUGAUGACUUCUUGGUGGCUUGUUGUCUUCUACCCCAUGUUUCUCACAGGAUCUGUGUGUGUGUGUGUGUGUGUGUGUGUGUGUGUGUGUGUGUGUGUUAGCAUGUGUGUAUUAGCGUGUGUGAGUGUGUGAGCAUGCACGAGUCAUAGGAGAUGCAGGUGUACUCUUGCGGUCGCACUAGUGUGGAAUUCUCGGGUGUCAAGG

>  <REPORTED_RESULT>
5.2 R (bound/input frequency ratio)

$$$$
>  <BINDER>
ENSMUSG00000043670.53|Diras1|229:234 (ssRNA) RNA: GGGAGUUCUACAGUCCGACGAUCGCUUCGAUAUCCGCAUGCUACCUACAGUAAGGUUGGGCUCCAUCCCUGCCUCUUCACACCUCCAUAGCUUCAUCCUUUGCAGACCUCUCCCUCUAUAUCUCUUUGCUCCCCCACCCCCAUUCUAUCUGCACCCCACAACCACACACUGGAGGUUUGAUCCCUGUGGAUCUGAAAACAGGGACCUGGCUAAGGAACUGCUCAUCCCAGUCAGGCCCAGAGAGGUUACCUUGCCUCUCCAUCUCUGUCCCACACACCCCAGCCAUGCCCACUGUCCCUGUCCCUCUUGCGGUCGCACUAGUGUGGAAUUCUCGGGUGUCAAGG

>  <REPORTED_RESULT>
2.98 R (bound/input frequency ratio)

$$$$
